// values below are reported z-score
# Experiment notes: qHTS for identification of novel therapeutic agents for treatment of microphthalmiaassociated transcription factor (MiT) renal cell carcinoma (RCC) (AID 1963991);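 further: curves scaled with 100% = DMSO viability and 0% = empty wells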
# Condition label: TFE3-RCC viability, CellTiter-Glo, 48 h; measured here: UOK124 Z-AUC; stronger effect = lower value
Results filed as inconclusive are left out. Non-standard residues stand in square brackets, D forms with d. Residues, ends and D or L forms follow the SMILES beside them. *: point of attachment. Sta = CC(C)C[C@H](N)[C@@H](O)CC(=O)O; Isovaleryl = CC(C)CC(=O)*
Outcome measure: z-score

Compound	Outcome measure	Numeric result
O=c1oc2cc(O)ccc2s1	z-score	0.455
N=C(N)c1ccc2cc(OC(=O)c3ccc(N=C(N)N)cc3)ccc2c1	z-score	-0.0134
COc1ccc2cc([C@H](C)C(=O)O)ccc2c1	z-score	0.689
CC1=C(C(=O)O)N2C(=O)[C@@H](NC(=O)[C@H](N)C3=CCC=CC3)[C@H]2SC1	z-score	0.465
CN(C)CCc1c[nH]c2ccc(Cn3cncn3)cc12	z-score	0.723
Cc1ncc([N+](=O)[O-])n1CC(C)O (stereo not given)	z-score	0.687
CC(C)CC(=O)N[C@H](C(=O)N[C@H](C(=O)N[C@@H](CC(C)C)[C@@H](O)CC(=O)N[C@@H](C)C(=O)N[C@@H](CC(C)C)[C@@H](O)CC(=O)O)C(C)C)C(C)C (Isovaleryl-VV[Sta]A[Sta]-OH)	z-score	0.618
C[C@H](Cn1cnc2c(N)ncnc21)OCP(=O)(O)O	z-score	0.295
C=CCc1cc(OC)c(O)c(C(=O)NCCO)c1	z-score	0.641
C=C(c1ccc(C(=O)O)cc1)c1cc2c(cc1C)C(C)(C)CCC2(C)C	z-score	-0.242

###

# Experiment notes: qHTS of pediatric cancer cell lines to identify multiple opportunities for drug repurposing: Primary screen for SK-N-MC cells (AID 1347093)
# Condition label: SK-N-MC viability, CellTiter-Glo luminescence, 48 h; series mostly up to 46 µM
Inconclusive results are not listed. Active and inactive are the calls of the source. Calls follow the shape of the dose curve; as a rule, active = well fitted cell-killing curve with a large enough effect; inconclusive = small, poorly fitted or top-dose-only effect; inactive = no such curve, though single readings can be large or run the other way.
Labels: label 1 for active, label 0 for inactive

Molecule	Label class
NNc1nncc2ccccc12	label 0
Nc1nc(Cl)nc2c1ncn2[C@H]1C[C@H](O)[C@@H](CO)O1	label 1
CC(=O)O[C@H]1C(=O)[C@@]2(C)C([C@H](OC(=O)c3ccccc3)[C@]3(O)C[C@H](OC(=O)[C@H](O)[C@@H](NC(=O)c4ccccc4)c4ccccc4)C(C)=C1C3(C)C)[C@]1(OC(C)=O)CO[C@@H]1C[C@@H]2O (some centres undefined)	label 1
O=C(O)c1cn(-c2ccc(F)cc2)c2cc(N3CCNCC3)c(F)cc2c1=O	label 0
C[Se]CCC(N)C(=O)O (centres undefined)	label 1
CC(S)C(=O)NCC(=O)O (centres undefined)	label 0
O=c1c(O)c(-c2ccc(O)cc2O)oc2cc(O)cc(O)c12	label 0
O=C(O)c1cc(=O)c2c(OCC(O)COc3cccc4oc(C(=O)O)cc(=O)c34)cccc2o1	label 0
CN(C)[C@@H](CCOc1cccc2ccccc12)c1ccccc1	label 1
c1cnc2cc3c(cc2n1)C1CNCC3C1	label 1
Cc1cc(=O)oc2cc(O)ccc12	label 0
COc1c(O)cc2c(c1O)[C@@H]1O[C@H](CO)[C@@H](O)[C@H](O)[C@H]1OC2=O	label 0
Nc1cc(C(Cl)=C(Cl)Cl)c(S(N)(=O)=O)cc1S(N)(=O)=O	label 0
Nc1ccc(S(N)(=O)=O)cc1	label 0
COc1cc2c(N3CCN(C(=O)Nc4ccc(OC(C)C)cc4)CC3)ncnc2cc1OCCCN1CCCCC1	label 1
O=c1cc(N2CCOCC2)oc2c(-c3ccccc3)cccc12	label 1
COc1cc2nc(N3CCN(C(=O)C4CCCO4)CC3)nc(N)c2cc1OC (centres undefined)	label 0
OC(CN1CCN(c2cccc(Cl)c2)CC1)C(c1ccccc1)c1ccccc1 (centres undefined)	label 1
Cc1cccc(-c2[nH]ncc2-c2ccc3ncccc3n2)n1	label 0
CCOC(=O)c1c(C)n(C)c2ccc(O)cc12	label 0
O=P(O)(O)C(O)(Cn1ccnc1)P(=O)(O)O	label 0
O=C(CCc1ccc(O)cc1)c1c(O)cc(O)cc1O	label 1
S=c1nc[nH]c2nc[nH]c12	label 1
COC(=O)C1=C(C)NC(C)=C(C(=O)OCCCN2CCC(c3ccccc3)(c3ccccc3)CC2)C1c1cccc([N+](=O)[O-])c1 (centres undefined)	label 1
NC(=NCc1ccccc1)NC(=O)c1nc(Cl)c(N)nc1N	label 1
CC(=O)Nc1ccc(O)cc1	label 0
CCC(C)(Oc1ccc(C2(c3ccc(OC(C)(CC)C(=O)O)cc3)CCCCC2)cc1)C(=O)O (centres undefined)	label 0
Nc1ccn([C@@H]2O[C@H](CO)[C@@H](O)C2O)c(=O)n1 (some centres undefined)	label 0
COc1cc(OC)c(C(=O)CCCN2CCCC2)c(OC)c1	label 0

###

# Experiment notes: qHTS Screen of the MIPE 4.0 Collection Against Ewings Sarcoma (RDES) (AID 1259252); further: nearly all actives have a fitted effect of over 35% in size
# Condition label: RD-ES Ewing sarcoma viability, CellTiter-Glo, 48 h; series mostly up to 45.8 µM
Inconclusive results are not listed. Active and inactive are the calls of the source. The call rests on the fitted dose curve; in most records, active means well fitted inhibition curve with a large enough effect; inconclusive means small, poorly fitted or top-dose-only effect; inactive means no such curve, though single readings can be large or run the other way.
Possible outcomes: Y = active, N = inactive

> print(dat)
                                    molecule  label.class
 1  O=c1c(O)c(-c2ccc(O)cc2O)oc2cc(O)cc(O)c12            N
 2     CN(C)c1ccc2nc3ccc(=[N+](C)C)cc-3sc2c1            Y
 3         O=C(CCc1ccc(O)cc1)c1c(O)cc(O)cc1O            Y
 4                c1ccc2[nH]c(-c3cscn3)nc2c1            N
 5  Cc1ccc(Nc2nccc(N(C)c3ccc4c(C)n(C)nc4c3)n2)cc1S(N)(=O)=O            Y
 6            Cc1cc2cc3c(C)cc(=O)oc3c(C)c2o1            Y
 7  CC1(C)CCC(C)(C)c2cc(NC(=O)c3ccc(C(=O)O)cc3)ccc21            Y
 8  COc1cc2c(cc1OC)C1CC(=O)C(CC(C)C)CN1CC2 (configuration not stated)            N
 9                CCN(CC)C(=S)SSC(=S)N(CC)CC            Y
10  CN(c1nccc(=O)[nH]1)C1CCN(c2nc3ccccc3n2Cc2ccc(F)cc2)CC1            Y
11  C[C@@H](c1ncncc1F)[C@](O)(Cn1cncn1)c1ccc(F)cc1F            N
12  Nc1cccc2c1CN(C1CCC(=O)NC1=O)C2=O (configuration not stated)            N

###

# Experiment notes: qHTS of pediatric cancer cell lines to identify multiple opportunities for drug repurposing: Primary screen for Saos-2 cells (AID 1347097); further: nearly all actives have a fitted effect of over 40% in size
# Condition label: Saos-2 viability, CellTiter-Glo ATP luminescence, 48 h; series mostly up to 46 µM
Records with an inconclusive call do not appear. Activity calls are given as the source filed them. The call rests on the fitted dose curve; in most records, active means well fitted cell-killing curve with a large enough effect; inconclusive means small, poorly fitted or top-dose-only effect; inactive means no such curve, though single readings can be large or run the other way.
Outcome codes: active, inactive

> print(dat)
                                   molecule  label.class
1  O=C(O)c1cc(=O)c2c(OCC(O)COc3cccc4oc(C(=O)O)cc(=O)c34)cccc2o1     inactive
2  Nc1ccn([C@@H]2O[C@H](CO)[C@@H](O)C2O)c(=O)n1 (some centres not stated)     inactive
3    Cc1cc(O)c2c(c1)C(=O)c1cc(O)cc(O)c1C2=O     inactive
4  O=Nc1c(-c2c(O)[nH]c3cc(Br)ccc23)[nH]c2ccccc12       active
5  O=C(O)c1cn(-c2ccc(F)cc2)c2cc(N3CCNCC3)c(F)cc2c1=O     inactive
6  N[C@@H](Cc1cc(I)c(Oc2cc(I)c(O)c(I)c2)c(I)c1)C(=O)O     inactive
7                 COc1c2occc2cc2ccc(=O)oc12     inactive

###

# System: Hek293T
# Experiment notes: Primary qHTS to identify gynecologic anti-cancer compounds using libraries of approved drugs and bioactive compounds (AID 1345084); further: nearly all actives have a fitted effect of over 55% in size
# Condition label: Gynecologic cancer cell panel viability, ATPlite luminescence, 48 h, control line for the selectivity index; series mostly up to 57.5 µM
Inconclusive results are not listed. Calls of active or inactive are those of the source. Calls follow the shape of the dose curve; as a rule, active = well fitted cell-killing curve with a large enough effect; inconclusive = small, poorly fitted or top-dose-only effect, or effect the other way; inactive = flat fitted curve, though single readings scatter.
Outcome measure: outcome

> print(dat)
                                   molecule  tested.system    result
1  CCCCCCCCOc1ccccc1C(=O)Nc1ccc(C(=O)OCC[N+](C)(CC)CC)cc1        Hek293T  inactive
2                 CNC[C@H](O)c1ccc(O)c(O)c1        Hek293T  inactive
3                     Oc1ccc(OCc2ccccc2)cc1        Hek293T  inactive
4             O=C(NCCO[N+](=O)[O-])c1cccnc1        Hek293T  inactive
5  CC1=C(C)C(=O)C(C(CCCCCC(=O)O)c2ccccc2)=C(C)C1=O (stereo not given)        Hek293T  inactive
